target: sTIM-1 (Homo sapiens)
Sequence (Q96D42 21-295 limits assumed): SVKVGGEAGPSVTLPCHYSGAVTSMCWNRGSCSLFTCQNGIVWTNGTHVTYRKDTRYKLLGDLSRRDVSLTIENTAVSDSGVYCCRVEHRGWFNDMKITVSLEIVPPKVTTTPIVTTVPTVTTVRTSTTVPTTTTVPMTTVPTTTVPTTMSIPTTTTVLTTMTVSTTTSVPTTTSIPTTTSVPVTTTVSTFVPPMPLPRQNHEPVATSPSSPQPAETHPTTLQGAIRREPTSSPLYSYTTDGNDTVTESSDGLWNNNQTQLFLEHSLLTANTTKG

Structure Notation: CCCCCCCC/C=C\CCCCCCCC(=O)OC[C@H](COP(=O)(O)OC[C@H](N)C(=O)O)OC(=O)CCCCCCC/C=C\CCCCCCCC
Target Or Test System: sTIM-1 (Homo sapiens)
Kd [nM]: 350

###

target: UniProtKB Q96H15; assay: SPR, protein over lipid vesicles on L1 chip; format: binding
Sequence (Q96H15 25-314 limits assumed): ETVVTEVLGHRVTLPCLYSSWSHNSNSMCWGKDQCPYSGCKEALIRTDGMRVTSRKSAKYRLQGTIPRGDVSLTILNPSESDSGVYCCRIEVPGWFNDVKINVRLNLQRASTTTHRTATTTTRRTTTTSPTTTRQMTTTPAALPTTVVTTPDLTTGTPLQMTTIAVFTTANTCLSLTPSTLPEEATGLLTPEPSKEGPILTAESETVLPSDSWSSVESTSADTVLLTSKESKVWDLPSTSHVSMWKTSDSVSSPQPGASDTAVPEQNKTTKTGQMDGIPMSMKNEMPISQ
pKd: −log10 of the molar value.

Molecule: CCCCCCCC/C=C\CCCCCCCC(=O)OC[C@H](COP(=O)(O)OC[C@H](N)C(=O)O)OC(=O)CCCCCCC/C=C\CCCCCCCC [DOPS]
pKd: 6.11

###

biological target: sTIM-3 (Homo sapiens)
pKd: −log10 of the molar value.

Structure Notation: CCCCCCCC/C=C\CCCCCCCC(=O)OC[C@H](COP(=O)(O)OC[C@H](N)C(=O)O)OC(=O)CCCCCCC/C=C\CCCCCCCC
Target Or Test System: sTIM-3 (Homo sapiens)
pKd: 5.01

###

biological target: sTIM-3 (Homo sapiens, UniProt Q8TDQ0, I117A/M118A); experiment: SPR, protein over lipid vesicles on L1 chip
Sequence (Q8TDQ0 22-202 I117A/M118A limits assumed): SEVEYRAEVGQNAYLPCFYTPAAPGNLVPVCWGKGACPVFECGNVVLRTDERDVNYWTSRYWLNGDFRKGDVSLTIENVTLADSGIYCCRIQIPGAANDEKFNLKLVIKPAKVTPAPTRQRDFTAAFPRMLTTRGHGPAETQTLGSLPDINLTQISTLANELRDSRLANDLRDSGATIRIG
pKd: −log10 of the molar value.

Compound: CCCCCCCC/C=C\CCCCCCCC(=O)OC[C@H](COP(=O)(O)OC[C@H](N)C(=O)O)OC(=O)CCCCCCC/C=C\CCCCCCCC [DOPS]
pKd: < 3.70
